# ASSAY_SUMMARY: Inhibition of rat GGTase-1 using geranylgeranyl-pyrophosphate and dansyl-GCVLL as substrate preincubated for 5 mins measured after 15 mins by fluorescence assay
pIC50: −log10 of the molar value.
PARAMETER_MEASURED: pIC50

Here is how some molecules turned out for pIC50.
>>> value_observed("O=C1NCC(=O)N(Cc2ccc(F)cc2)[C@@H]1Cc1c[nH]c2ccccc12")
6.32
>>> value_observed("CSCC[C@@H]1C(=O)NCC(=O)N1Cc1ccco1")
6.14
>>> value_observed("COc1ccc(CN2C(=O)CNC(=O)[C@H]2Cc2c[nH]c3ccccc23)cc1")
6.82
>>> value_observed("COc1ccc(C[C@H]2C(=O)NCC(=O)N2Cc2ccc(OC)cc2)cc1")
6.06
>>> value_observed("O=C1NCC(=O)N(Cc2ccco2)[C@H]1Cc1c[nH]c2ccccc12")
6.10

I = O=C1NCC(=O)N(Cc2ccc(Cl)cc2)[C@H]1Cc1c[nH]c2ccccc12
II = COc1ccc(CN2C(=O)CNC(=O)[C@@H]2CC(C)C)cc1
III = COc1ccc(CN2C(=O)CNC(=O)[C@@H]2CSCc2ccccc2)cc1
Req: Please rank these molecules by pIC50 in descending order. State the ranking by listing the labels in the requested order.
Resp: III, I, II

* * *

# ASSAY_SUMMARY: Inhibition of rat FTase using farnesylpyrophosphate and dansyl-GCVLS as substrate preincubated for 5 mins measured after 15 mins by fluorescence assay
PARAMETER_MEASURED: IC50 (nM)

// solved cases for IC50 follow
>>> value_observed("CSCC[C@@H]1C(=O)NCC(=O)N1Cc1ccco1")
121
>>> value_observed("O=C1NCC(=O)N(Cc2ccco2)[C@@H]1Cc1ccccc1")
177

P = COc1ccc(C[C@@H]2C(=O)NCC(=O)N2Cc2ccco2)cc1
Q = O=C1NCC(=O)N(Cc2ccc(Cl)cc2)[C@H]1Cc1c[nH]c2ccccc12
R = COc1ccc(CN2C(=O)CNC(=O)[C@H]2CC(C)C)cc1
S = COc1ccc(C[C@H]2C(=O)NCC(=O)N2Cc2ccc(OC)cc2)cc1
T = O=C1NCC(=O)N(Cc2ccc(Oc3ccc(Cl)c(Cl)c3)cc2)[C@H]1Cc1c[nH]c2ccccc12
Req: Reorder: IC50, max to min. Lab note: record answer as labels in requested order.
Resp: R, S, P, Q, T

1 = COc1ccc(CN2C(=O)CNC(=O)[C@H]2Cc2c[nH]c3ccccc23)cc1
2 = CSCC[C@H]1C(=O)NCC(=O)N1Cc1ccco1
3 = O=C1NCC(=O)N(Cc2ccc(Oc3ccc(Cl)c(Cl)c3)cc2)[C@@H]1Cc1c[nH]c2ccccc12
Req: # rank_down: sort by IC50, max first Thanks in advance for listing the labels in the requested order.
Resp: 2, 1, 3
(2: 189 nM, 1: 39.8 nM, 3: 13.1 nM)

A = COc1ccc(CN2C(=O)CNC(=O)[C@@H]2CCSC)cc1
B = O=C1NCC(=O)N(Cc2ccco2)[C@H]1Cc1c[nH]c2ccccc12
C = CC(C)C[C@H]1C(=O)NCC(=O)N1Cc1ccco1
Req: Given 3 molecules, produce a descending ranking by IC50. As an answer, provide the labels arranged in the order called for.
Resp: C, A, B

* * *

# ASSAY_SUMMARY: Inhibition of rat GGTase-1 using geranylgeranyl-pyrophosphate and dansyl-GCVLL as substrate preincubated for 5 mins measured after 15 mins by fluorescence assay
pIC50: −log10 of the molar value.
PARAMETER_MEASURED: pIC50

>>> value_observed("O=C1NCC(=O)N(Cc2ccc(F)cc2)[C@H]1Cc1c[nH]c2ccccc12")
6.11
>>> value_observed("CSCC[C@H]1C(=O)NCC(=O)N1Cc1ccco1")
5.72

I = N#Cc1ccc(CN2C(=O)CNC(=O)[C@@H]2Cc2c[nH]c3ccccc23)cc1
II = O=C1NCC(=O)N(Cc2ccc(Oc3ccc(Cl)c(Cl)c3)cc2)[C@@H]1Cc1c[nH]c2ccccc12
III = COc1ccc(CN2C(=O)CNC(=O)[C@H]2CC(C)C)cc1
Req: Exam item: list the entries in increasing order of pIC50. Give the order by naming the labels one after another as requested.
Resp: III, I, II

meta.source: ChEMBL document CHEMBL1781910
